Quick reference for residual activity among some compounds
Biological target: SRSF protein kinase 1 (Homo sapiens) (UniProt Q96SB4)
Sequence (Q96SB4 whole entry): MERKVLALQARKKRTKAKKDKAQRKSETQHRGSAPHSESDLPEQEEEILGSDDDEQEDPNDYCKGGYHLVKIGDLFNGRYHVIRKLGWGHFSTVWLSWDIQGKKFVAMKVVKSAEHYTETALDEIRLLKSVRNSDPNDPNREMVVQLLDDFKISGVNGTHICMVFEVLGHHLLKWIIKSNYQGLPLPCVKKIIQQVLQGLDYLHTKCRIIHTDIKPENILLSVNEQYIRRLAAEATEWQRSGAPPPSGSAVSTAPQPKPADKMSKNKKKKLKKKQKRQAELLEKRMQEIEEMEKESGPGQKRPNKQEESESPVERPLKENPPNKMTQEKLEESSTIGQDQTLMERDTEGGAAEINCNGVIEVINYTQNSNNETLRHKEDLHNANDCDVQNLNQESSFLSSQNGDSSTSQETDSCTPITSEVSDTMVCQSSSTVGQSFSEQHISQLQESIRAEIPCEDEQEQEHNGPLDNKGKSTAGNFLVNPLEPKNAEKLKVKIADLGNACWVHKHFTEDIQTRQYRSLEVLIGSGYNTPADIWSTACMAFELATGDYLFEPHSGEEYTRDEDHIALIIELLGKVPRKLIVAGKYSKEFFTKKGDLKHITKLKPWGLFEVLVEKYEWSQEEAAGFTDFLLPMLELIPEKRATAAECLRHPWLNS
Details: at 10 µM

[
  {
    "compound": "NC(=O)c1cccc(-c2cc(Nc3ccc(OC(F)(F)F)cc3)ncn2)c1",
    "residual activity, %": 97
  },
  {
    "compound": "NC(=O)Nc1sc(-c2ccc(F)cc2)cc1C(N)=O",
    "residual activity, %": 78
  },
  {
    "compound": "O=C(NC(NC(=S)Nc1ccc(F)c([N+](=O)[O-])c1)C(Cl)(Cl)Cl)C(c1ccccc1)c1ccccc1 (stereo not drawn)",
    "residual activity, %": 92
  },
  {
    "compound": "COc1ccc2c(c1)c(C1=C(c3c[nH]c4ccccc34)C(=O)NC1=O)cn2CCCN(C)C",
    "residual activity, %": 56
  },
  {
    "compound": "Nc1nc(Nc2ccc(S(N)(=O)=O)cc2)nn1C(=O)c1c(F)cccc1F",
    "residual activity, %": 7
  },
  {
    "compound": "O=C1NC(=O)C(c2c[nH]c3ccccc23)=C1c1c[nH]c2ccccc12",
    "residual activity, %": 6
  },
  {
    "compound": "Cn1sc(=O)n(Cc2ccccc2)c1=O",
    "residual activity, %": 91
  },
  {
    "compound": "CN(C)S(=O)(=O)c1ccc2c(c1)/C(=C/c1cc3c([nH]1)CCCC3)C(=O)N2",
    "residual activity, %": 8
  },
  {
    "compound": "Fc1ccc(-c2nc3n(c2-c2ccncc2)CCS3)cc1",
    "residual activity, %": 93
  },
  {
    "compound": "CCCCc1c(-c2ccc(OC)cc2)[nH]c2nccnc12",
    "residual activity, %": 106
  },
  {
    "compound": "Nc1ncnc2[nH]nc(Nc3ccc(F)cc3)c12",
    "residual activity, %": 79
  },
  {
    "compound": "O=c1cc(N2CCOCC2)oc2c1ccc1ccccc12",
    "residual activity, %": 93
  },
  {
    "compound": "CCCC(=O)Oc1ccc2[nH]c(C(=O)c3cc4ccccc4[nH]3)cc2c1",
    "residual activity, %": 103
  },
  {
    "compound": "COc1cc2nccc(Oc3ccc(NC(=S)NC(=O)c4ccccc4C)cc3)c2cc1OC",
    "residual activity, %": 96
  },
  {
    "compound": "CN([C@@H](Cc1ccc(OS(=O)(=O)c2cccc3cnccc23)cc1)C(=O)N1CCN(c2ccccc2)CC1)S(=O)(=O)c1cccc2cnccc12",
    "residual activity, %": 86
  },
  {
    "compound": "O=C(c1cc2cc(O)ccc2[nH]1)c1cc2cc(O)ccc2[nH]1",
    "residual activity, %": 79
  },
  {
    "compound": "COc1cc2ncnc(Nc3cccc(Cl)c3)c2cc1OC",
    "residual activity, %": 108
  },
  {
    "compound": "O=C1NC(=O)c2c1c1c3ccccc3[nH]c1n1cncc21",
    "residual activity, %": 76
  }
]

These data points were gathered from ChEMBL document CHEMBL2218924.
